# tgt: T1, VPAC1 receptor
# T1 sequence (P32241 whole entry, species assumed, looked up): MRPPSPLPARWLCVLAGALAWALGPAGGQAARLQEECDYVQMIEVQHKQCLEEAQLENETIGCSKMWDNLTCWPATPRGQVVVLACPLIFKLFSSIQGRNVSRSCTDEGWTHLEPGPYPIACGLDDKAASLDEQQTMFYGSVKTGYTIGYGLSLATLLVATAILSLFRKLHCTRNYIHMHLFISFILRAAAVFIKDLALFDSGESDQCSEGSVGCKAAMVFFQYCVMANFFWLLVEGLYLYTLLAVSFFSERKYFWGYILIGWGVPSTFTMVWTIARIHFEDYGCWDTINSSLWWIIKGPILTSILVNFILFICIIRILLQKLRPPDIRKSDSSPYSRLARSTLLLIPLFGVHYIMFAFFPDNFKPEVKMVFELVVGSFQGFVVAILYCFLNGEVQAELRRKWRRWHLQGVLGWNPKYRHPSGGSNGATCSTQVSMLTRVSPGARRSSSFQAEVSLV
# experiment: cell-based or functional assay
Ends that are not written are not given here.
property.measured: EC50 (nM), cAMP assay, VPAC1 agonist activity

HSDAVFTDQYTRLRKQVAAKKYLQSIKQKRY (ends and bridges not checked) [P5] ... 232 nM

Query: # query: EC50 (nM), cAMP assay, VPAC1 agonist activity of entry HSDAVFTDQYTRLRKQVAAKKYLQSIKQKRYC (ends and bridges not checked) [P12]
Response: > 1000 nM

Query: # query: EC50 (nM), cAMP assay, VPAC1 agonist activity of entry HSDAVFTDQYTRLRKQVAAKKYLQSIKQKRYC (linear 22 kD PEG attached to the C-terminal cysteine via maleimide (thioether) linkage) [P212 (P12+22 kD PEG)]
Response: > 1000 nM

Query: # query: EC50 (nM), cAMP assay, VPAC1 agonist activity of entry HSDAVFTDQYTRLRKQVAAKKYLQSIKQKRYC (branched 43 kD PEG attached to the C-terminal cysteine via maleimide (thioether) linkage) [P412 (P12+43 kD PEG)]
Response: > 1000 nM

The reported numbers originate from patent US20080261863A1.
